Hello, the source for this data is patent US11591311B2, in case you need it.

# Assayed system: AHR (Homo sapiens, UniProt P35869)
# Construct: U87 glioblastoma cells (ATCC) endogenously expressing AHR; host or cells: U87 glioblastoma cells, stably transfected with DRE-firefly luciferase and renilla reporter constructs
# Sequence (P35869 11-848): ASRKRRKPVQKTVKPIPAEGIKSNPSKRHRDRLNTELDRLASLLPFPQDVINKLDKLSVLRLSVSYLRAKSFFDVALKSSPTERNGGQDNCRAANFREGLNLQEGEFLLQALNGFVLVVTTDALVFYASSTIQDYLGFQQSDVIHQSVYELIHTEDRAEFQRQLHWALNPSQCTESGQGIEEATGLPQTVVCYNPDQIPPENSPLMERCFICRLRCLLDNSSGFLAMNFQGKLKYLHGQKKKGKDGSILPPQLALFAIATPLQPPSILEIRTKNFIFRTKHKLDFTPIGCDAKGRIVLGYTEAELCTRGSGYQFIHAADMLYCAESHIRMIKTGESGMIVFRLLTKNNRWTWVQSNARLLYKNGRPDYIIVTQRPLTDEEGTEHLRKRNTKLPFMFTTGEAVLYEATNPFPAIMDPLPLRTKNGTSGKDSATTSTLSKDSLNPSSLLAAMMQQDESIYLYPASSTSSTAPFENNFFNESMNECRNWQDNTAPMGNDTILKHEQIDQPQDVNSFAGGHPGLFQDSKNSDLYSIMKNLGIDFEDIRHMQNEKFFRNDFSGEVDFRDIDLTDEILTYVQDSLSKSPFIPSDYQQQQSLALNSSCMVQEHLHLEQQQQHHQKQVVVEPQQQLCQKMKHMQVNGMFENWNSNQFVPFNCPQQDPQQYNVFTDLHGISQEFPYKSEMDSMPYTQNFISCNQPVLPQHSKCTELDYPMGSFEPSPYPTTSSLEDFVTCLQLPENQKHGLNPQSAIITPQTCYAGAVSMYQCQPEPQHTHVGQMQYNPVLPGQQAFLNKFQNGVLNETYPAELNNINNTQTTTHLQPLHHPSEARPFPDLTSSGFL
# Assay explanation: In vitro assay 1: AHR-luc transactivation assay, antagonism in human cell line (U87 glioblastoma cells prestimulated with kynurenic acid)
# Type: cell-based
pIC50: −log10 of the molar value.
Kind request: treat 7 as inclusive, so pIC50 at 7 or higher is class 1, anything lower is class 0.

// known answers, use as guide
C[C@@H](NC(=O)c1cc(-c2ccc(C(F)(F)F)nc2)nn(-c2cccc(F)c2)c1=O)C(C)(C)O [Example 7] ... class 1
Cc1ccc(-c2cc(C(=O)N[C@@H](C)CO)c(=O)n(-c3cccc(F)c3)n2)nc1 [Example 12] ... class 0
C[C@H](NC(=O)c1cc(-c2cnc(C(F)(F)F)nc2)nn(-c2cccc(F)c2)c1=O)C(C)(C)O [Example 14] ... class 0
C[C@@H](CO)NC(=O)c1cc(-c2ccc(Cl)cn2)nn(-c2cccc(F)c2)c1=O [Example 24] ... class 0
O=C(N[C@H](CO)C(F)(F)F)c1cc(-c2ccc(C(F)F)nc2)nn(-c2cccc(F)c2)c1=O [Example 28] ... class 1
CC(C)(O)[C@@H](NC(=O)c1cc(-c2ccc(C(F)F)nc2)nn(-c2cccc(F)c2)c1=O)C1CC1 [Example 27] ... class 1
Cc1ccc(-c2cc(C(=O)N[C@@H](C)CO)c(=O)n(-c3cccc(F)c3)n2)cn1 [Example 23] ... class 0
C[C@@H](CO)NC(=O)c1cc(-c2ccc(C(F)(F)F)nc2)nn(-c2ccc(F)c(F)c2)c1=O [Example 3] ... class 0

Query :: Is pIC50 for O=C(NC(CO)C1CCOC1)c1cc(-c2ccc(C(F)F)nc2)nn(-c2cccc(F)c2)c1=O (stereo not shown) [Example 36] at or above 7?
Result :: class 0

Query :: Entry N#C[C@@H](CO)NC(=O)c1cc(-c2ccc(C(F)(F)F)nc2)nn(-c2cccc(F)c2)c1=O [Example 39] please
Result :: class 1

Query :: How about this compound: C[C@@H](CO)NC(=O)c1cc(-c2cnc(C(F)(F)F)nc2)nn(-c2cccc(F)c2)c1=O [Example 11]
Result :: class 0

Query :: Same question, C[C@H](NC(=O)c1cc(-c2ccc(C(F)(F)F)nc2)nn(-c2cccc(F)c2)c1=O)C(C)(C)O [Example 9] this time
Result :: class 1
